Tested on: RARb homodimer (NR concentration 270 nM)
Assay: PBM binding z-score (relative to random genomic background probes); higher = stronger binding; sequences stand for … in GC…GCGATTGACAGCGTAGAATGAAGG
Each entry gets not satisfied if its PBM binding z-score stays under 3, and satisfied if its PBM binding z-score is 3 or above.

The following sequences have reported results that may help.
INSERT INTO measurements (primary_sequence, group_label) VALUES
  ('TTTAGTTGGTCAAAGGTCACACACTCGAAATGCG', 'satisfied'),
  ('CTCGAAAGGGCGTGCTCAGGTGAGTATACCAAAC', 'not satisfied'),
  ('AATACAGGGTCACTAGGTCAGAGTAGGTACGAAT', 'satisfied'),
  ('CGAACTAGGTCACCAGGACAGTGAAGAGGTTGGA', 'satisfied'),
  ('ATCTCTAGGTAAAGGTCAGTGAAAGATCGATAGA', 'satisfied'),
  ('CCTACTGGGCCATGAAAGGTCATTGATTCAGTGA', 'satisfied'),
  ('CGAACTAGGTCAAAAGACAGTGAAAGGCGACGTA', 'not satisfied'),
  ('CTATGTAGGTTAAGGTGGTCATTCAGTTTGAAAG', 'not satisfied');

Could you verify whether the entry "CTATGTAGGTTAAGGGGGTGATTCAGTTTGAAAG" shows PBM binding z-score of no less than 3?
not satisfied

Could you verify whether the entry "CGTCCAAGGTCAGAGAGGTCAGTGTATGCCGAGT" shows PBM binding z-score of no less than 3?
satisfied

Could you verify whether the entry "CAATCTAGGTCACAGAGGTCAAAGTCCGTGCGTA" shows PBM binding z-score of no less than 3?
satisfied

Could you verify whether the entry "CAAACTAGGTCACAGAGGTCAACGTCCGTGCGTA" shows PBM binding z-score of no less than 3?
satisfied

Could you verify whether the entry "ATATTTAGGTTAGGGTCATTCAGAAAGTAGGGAA" shows PBM binding z-score of no less than 3?
satisfied

Could you verify whether the entry "TCGAGTAGGTTACGGGGGCTTTCAGGGATGAAGA" shows PBM binding z-score of no less than 3?
not satisfied

Could you verify whether the entry "ATGTGTAGGTTAGGGTCATTCAGAAAGTAGGGAA" shows PBM binding z-score of no less than 3?
satisfied

Could you verify whether the entry "CCTACTGGGCCAAAGGCCATTGATTCCAATGCTC" shows PBM binding z-score of no less than 3?
not satisfied

Could you verify whether the entry "GGTACGAGGGCAAAGTTGATAGCATCTGTCGACG" shows PBM binding z-score of no less than 3?
not satisfied

Could you verify whether the entry "GATAAAGGGTCAGCTAGAGGCCAGAGTATGGAAA" shows PBM binding z-score of no less than 3?
satisfied

Could you verify whether the entry "AGTAAAAGTTCACTAGGTAACGTAAGATTCAGCT" shows PBM binding z-score of no less than 3?
satisfied

Could you verify whether the entry "CAAACTAGGTCAAAGGTCAAAGTAGAGCCAACCA" shows PBM binding z-score of no less than 3?
satisfied

Could you verify whether the entry "AATACAGGATCACTAGGCCAGAGTAGGTACGAAT" shows PBM binding z-score of no less than 3?
not satisfied

Could you verify whether the entry "CCTAGCCGGCCAATCTGGGTCACTCAAGGCTTGA" shows PBM binding z-score of no less than 3?
not satisfied

Could you verify whether the entry "CGAACTAGGTCACCAGGACGGTGAAGAGGTTGGA" shows PBM binding z-score of no less than 3?
satisfied

====

System: VDR:RXRa (NR concentration 270 nM, RXRa partner concentration 90 nM)
Assay: PBM binding z-score (relative to random genomic background probes); higher = stronger binding; sequences stand for … in GC…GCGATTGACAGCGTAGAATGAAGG
Kindly supply the reported PBM binding z-score values for the records listed here.
Numbers only.

Give measured PBM binding z-score for every item shown.
1. CGAACTAGGTCACCAGGACAGTGCAGAGGTTGGA
2. CCTACTGGGCCAAAGGTCAGTGATTCCAATGCTC
3. CGAACTAGGTGATTGACAGGACAGTGAATAGTAA
4. CGTCGGAGGACAGAAGGTCAGAGCTGTCCGCTTT

2.28
2.88
-0.0545
0.797

====

System: VDR:RXRa (NR concentration 270 nM, RXRa partner concentration 90 nM)
Test: PBM binding z-score (relative to random genomic background probes); higher = stronger binding; sequences stand for … in GC…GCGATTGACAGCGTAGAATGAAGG
Kindly supply the reported PBM binding z-score values for the records listed here.
Numbers only.

Use the examples below as a reference point.
INSERT INTO measurements (primary_sequence, endpoint, reading) VALUES
  ('TCGAGTAGTTTACGGGGGCATTCAGGGATGAAGA', 'PBM binding z-score', 3.09),
  ('AATACAGGGTCATTAGGCCAGAGTAGGTACGAAT', 'PBM binding z-score', 4.61),
  ('TAGCCTAGGTCAGATCGGGCGAGTATACGCTATA', 'PBM binding z-score', 0.506);

Then this sequence:
Item under review: "CCTTACGGGCCACGAGGTTATAGCACGACGAGCG" . Reported PBM binding z-score?
0.504

====

Tested on: RARb:RXRa (NR concentration 270 nM, RXRa partner concentration 90 nM)
Test: PBM binding z-score (relative to random genomic background probes); higher = stronger binding; sequences stand for … in GC…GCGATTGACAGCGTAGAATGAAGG
endpoint: PBM binding z-score
One number for each entry.

Use the examples below as a reference point.
INSERT INTO measurements (primary_sequence, reading) VALUES
  ('ATATGTAGCTTAGGGTCATTCAGAAAGTAGGGAA', 3.24),
  ('CGAACTAGGTCACCAGCACAGTGAAGAGGTTGGA', 4.11),
  ('AGTCAAAGTTGATCTAGGTAACGTAAGATATGCT', 0.672),
  ('TCGAGTAGGTTACGGGGGCACTCAGGGATGAAGA', 2.65),
  ('CCGAGTAGGTTACGAGGAGGCATTCAGTGCGAAT', 0.685);

Give measured PBM binding z-score for every item shown.
1. CTATGTAGGTTAAGGGGGTCATTAAGTTTGAAAG
2. ACTTACGGGTCAACGAAGTTATAGCACGCGTATA
3. ATCGAAAGGTGGACGAGGTGAGTATACACCGTTT
4. CGAACTAGGTCACAGGACAGTGAAAGGCGACGTA
5. GATACAAGGTCAGCTAGAGGCCAGAGTATGGAAA
6. CGAACTAGGTCAAAGGACAGTGATAGGCGACGTA
7. CTATGAAGGTTAAGGGGGTCATTCAGTTTGAAAG
8. CGAACTAGGTCAAAGGAAAGTGAAAGGCGACGTA

1. 3.58
2. 4.15
3. 0.89
4. 4.11
5. 5.05
6. 3.95
7. 4.05
8. 3.55

====

System: RXRa homodimer (NR concentration 180 nM)
Experiment: PBM binding z-score (relative to random genomic background probes); higher = stronger binding; sequences stand for … in GC…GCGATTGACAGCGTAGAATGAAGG
Kindly supply the reported PBM binding z-score values for the records listed here.
Answers are plain numbers.

Use the examples below as a reference point.
INSERT INTO measurements (primary_sequence, tgt, endpoint, reading) VALUES
  ('TCGAGTAGGTTACGGGGGCATTTAGGGATGAAGA', 'RXRa homodimer (NR concentration 180 nM)', 'PBM binding z-score', 2.73),
  ('ATATGTAGGTTACATGCGGGTCATTCAGGCTATG', 'RXRa homodimer (NR concentration 180 nM)', 'PBM binding z-score', 3.16),
  ('ACTAGTAGGCCAAGGGTCACTCAAGATTAGTCCG', 'RXRa homodimer (NR concentration 180 nM)', 'PBM binding z-score', 4.54),
  ('CGAACTAGGTCACCAGGACAGGGAAGAGGTTGGA', 'RXRa homodimer (NR concentration 180 nM)', 'PBM binding z-score', 2.96),
  ('CTATGGAGGTTAAGGGGGTCATTCAGTTTGAAAG', 'RXRa homodimer (NR concentration 180 nM)', 'PBM binding z-score', 6.48);

Give measured PBM binding z-score for every item shown.
1. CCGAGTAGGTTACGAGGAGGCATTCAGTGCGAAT
2. CGAAATAGGTCACCAGGACAGTGAAGAGGTTGGA
3. CGAAATAGGTCAAAGGACAGTGAAAGGCGACGTA

0.427
5.18
4.58

====

Test system: VDR:RXRa (NR concentration 270 nM, RXRa partner concentration 90 nM)
Test: PBM binding z-score (relative to random genomic background probes); higher = stronger binding; sequences stand for … in GC…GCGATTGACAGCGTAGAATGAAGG
Kindly supply the reported PBM binding z-score values for the records listed here.
Answers are plain numbers.

Use the examples below as a reference point.
INSERT INTO results (primary_sequence, endpoint, reading) VALUES
  ('TCTCGGAGGACACGAAAGGTCAGTGCTCGACATC', 'PBM binding z-score', 2.92),
  ('ACTCGGAGGACAAAGGTCACAGCTACGCCAGTGA', 'PBM binding z-score', 4.95),
  ('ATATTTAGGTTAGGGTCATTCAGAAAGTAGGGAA', 'PBM binding z-score', 4.6),
  ('CGAACTAGATCACCAGGACAGTGAAGAGGTTGGA', 'PBM binding z-score', -0.366),
  ('TCATATAGGTAATAGGTGAAAGTCGGTGTGGTAA', 'PBM binding z-score', 0.883);

Give measured PBM binding z-score for every item shown.
1. AAATGTAGGTTAGGGTCATTCAGAAAGTAGGGAA
2. CGTCCAAGGTCAACGCTAGGTCAGTGAAAGCATT
3. ACTCGGAGGACAGAGGTCAGAGCTACGCCAGTGA
4. CCTTACGGTTCACTGACAGGTTATAGCATTTGGA
5. CGTCAAAGTTCAACTAAGTTAACGTAAAGCACGC

[4.55, 5.09, 2.99, 2.6, 5.16]

Give measured PBM binding z-score for every item shown.
1. CGTCCAAGGTCAGCAGGTGAGTGAAAGCGACGTG
2. CAAACTAGGTCAAAGGTCAAAATCGAGCCAACCA

1. 2.67
2. 6.43

Give measured PBM binding z-score for every item shown.
1. CAAACTAGGTCAAAGGTCAAGGTCGAGCCAACCA
2. CCTTACGGGTCAAGGTTATACCACGGGTGGTACG
3. CGAACTACGTCACCAGGACAGTGAAGAGGTTGGA

1. 6.86
2. 3.65
3. -0.211

Give measured PBM binding z-score for every item shown.
1. ATATGTAGGTTACATCCGGGTCATTCTGGCTATG
2. TAGCCTAGGTCATGCGGGCCAGCATAGTGTCGGC
3. TCTAGTTCGTCACGGAGGTCACACACGACGGGTA
4. CGAACTAGGTCAAAGGACCGTGAAAGGCGACGTA
5. CGAACTAGGTCAAAGGACACTGAAAGGCGACGTA

3.69
2.7
4.68
1.03
1.74
